test system: H. influenzae; experiment: Expanded Spectrum MIC (Table II); assay type: cell-based; details: Haemophilus influenzae, strain 171
Field: MIC. Provide a value for each of the molecules that follow.
// units = µg/mL; emit number, no label

Notebook: CC1=C(C(=O)O)N2C(=O)C(NC(=O)[C@H](N)c3csc4cc(F)ccc34)C2SC1 (stereo partly drawn) [Ex. 17] , MIC read as 1

CC1=C(C(=O)O)N2C(=O)C(NC(=O)[C@H](N)c3csc4ccc(F)cc34)C2SC1 (stereo partly drawn) [Ex. 18] has a reported MIC of 1

// MIC value for CC1=C(C(=O)O)N2C(=O)C(NC(=O)[C@H](N)c3csc4c(F)cccc34)C2SC1 (stereo partly drawn) [Ex. 20] : 2

Reported MIC for CC1=C(C(=O)O)N2C(=O)C(NC(=O)C(N)c3csc4ccccc34)C2SC1 (stereo not drawn) [Ex. 9] was 1

The molecule listed as CC1=C(C(=O)O)N2C(=O)C(NC(=O)[C@H](N)c3csc4cccc(F)c34)C2SC1 (stereo partly drawn) [Ex. 19] has a reported MIC of 4

Form: molecule = CON=C(C(=O)NC1C(=O)N2C(C(=O)O)=C(C)CSC12)c1csc2cc(OC)ccc12 (stereo not drawn) [Ex. 22] ; MIC = 2

###

I'd be grateful if you could share measured MIC for these entries.
test system: Staph. aureus; assay: Agar Dilution MIC (Table I); format: cell-based; conditions: Staphylococcus aureus, strain X1.1; read-out: Agar Dilution MIC
Quick reminder: number only, in µg/mL, skip the unit.

Value (MIC, Staph. aureus) for record CC1=C(C(=O)O)N2C(=O)C(NC(=O)[C@H](N)c3csc4cccc(Cl)c34)C2SC1 (some centres unmarked) [Ex. 36B] = 16

MIC of CON=C(C(=O)NC1C(=O)N2C(C(=O)O)=C(C)CSC12)c1csc2cc(OC)ccc12 (centres unmarked) , assay on Staph. aureus, is 1

Query CC1=C(C(=O)O)N2C(=O)C(NC(=O)[C@H](N)c3csc4cc(F)ccc34)C2SC1 (some centres unmarked) on Staph. aureus; MIC returned: 1

Fill in: Staph. aureus MIC for CC1=C(C(=O)O)N2C(=O)C(NC(=O)[C@@H](N)c3csc4cc(Cl)ccc34)C2SC1 (some centres unmarked) [Ex. 37A] = 16

Measured MIC (Staph. aureus), entry CC1=C(C(=O)O)N2C(=O)C(NC(=O)[C@H](N)c3csc4ccc(F)cc34)C2SC1 (some centres unmarked) : 1

Given the compound CC1=C(C(=O)O)N2C(=O)C(NC(=O)[C@H](N)c3csc4ccc(Cl)cc34)C2SC1 (some centres unmarked) [Ex. 38B] and test system Staph. aureus, the measured MIC is 1

GET /values?item= CC1=C(C(=O)O)N2C(=O)C(NC(=O)[C@@H](N)c3csc4cccc(Cl)c34)C2SC1 (some centres unmarked) [Ex. 36A] &system= Staph. aureus returns MIC: 64

Sample C=CC1=C(C(=O)O)N2C(=O)C(NC(=O)[C@H](N)c3csc4ccccc34)C2SC1 (some centres unmarked) , system: Staph. aureus. Its MIC is 2

###

test system: H. influenzae; experiment: Expanded Spectrum MIC (Table II); assay type: cell-based; conditions: Haemophilus influenzae, strain 158
Answer each item with its documented MIC.
Write the answer as a number in µg/mL, unit excluded.

For reference, reported MIC for CC1=C(C(=O)O)N2C(=O)C(NC(=O)[C@H](N)c3csc4c(F)cccc34)C2SC1 (stereo partly drawn) [Ex. 20] stands at 2

For this molecule ( CC1=C(C(=O)O)N2C(=O)C(NC(=O)C(N)c3csc4ccccc34)C2SC1 (stereo not drawn) [Ex. 9] ), measured MIC is 1

Field MIC (entry CC1=C(C(=O)O)N2C(=O)C(NC(=O)[C@H](N)c3csc4cc(F)ccc34)C2SC1 (stereo partly drawn) [Ex. 17] ) reads 0.5

Record CON=C(C(=O)NC1C(=O)N2C(C(=O)O)=C(C)CSC12)c1csc2cc(OC)ccc12 (stereo not drawn) [Ex. 22] , field MIC: 1

The measured MIC associated with CC1=C(C(=O)O)N2C(=O)C(NC(=O)[C@H](N)c3csc4cccc(F)c34)C2SC1 (stereo partly drawn) [Ex. 19] reads 4

The molecule identified as CC1=C(C(=O)O)N2C(=O)C(NC(=O)[C@H](N)c3csc4ccc(F)cc34)C2SC1 (stereo partly drawn) [Ex. 18] registered its MIC at 1

###

tested on: Staph. epi; assay: Agar Dilution MIC (Table I); type: cell-based; settings: strain 222; read-out: Agar Dilution MIC
Param label: returns Fulfilled when MIC < 20 µg/mL, returns Not fulfilled otherwise, including exact equality.

## Task Below 20 µg/mL on MIC? Entry CC1=C(C(=O)O)N2C(=O)C(NC(=O)[C@@H](N)c3csc4ccc(Cl)cc34)C2SC1 (stereo partly drawn) [Ex. 38A]
## Result Fulfilled

## Task For this compound, is MIC lower than 20 µg/mL? C=CC1=C(C(=O)O)N2C(=O)C(NC(=O)[C@H](N)c3csc4ccccc34)C2SC1 (stereo partly drawn) [Ex. 35]
## Result Fulfilled

## Task Quick check: does CC1=C(C(=O)O)N2C(=O)C(NC(=O)[C@H](N)c3csc4cccc(Cl)c34)C2SC1 (stereo partly drawn) [Ex. 36B] have MIC under 20 µg/mL?
## Result Fulfilled

## Task Here's an entry: CON=C(C(=O)NC1C(=O)N2C(C(=O)O)=C(C)CSC12)c1csc2cc(OC)ccc12 (stereo not drawn) [Ex. 22] . Is its MIC below 20 µg/mL?
## Result Fulfilled

## Task Strictly below 20 µg/mL in MIC? CC1=C(C(=O)O)N2C(=O)C(NC(=O)[C@H](N)c3csc4c(F)cccc34)C2SC1 (stereo partly drawn) [Ex. 20]
## Result Fulfilled

## Task Item CC1=C(C(=O)O)N2C(=O)C(NC(=O)[C@H](N)c3csc4ccc(Cl)cc34)C2SC1 (stereo partly drawn) [Ex. 38B] : MIC beneath 20 µg/mL, strictly?
## Result Fulfilled

## Task Below 20 µg/mL on MIC? Entry CC1=C(C(=O)O)N2C(=O)C(NC(=O)[C@@H](N)c3csc4c(F)cccc34)C2SC1 (stereo partly drawn) [Ex. 21]
## Result Not fulfilled

## Task Hello, is MIC of the following compound strictly smaller than 20 µg/mL? CC1=C(C(=O)O)N2C(=O)C(NC(=O)[C@@H](N)c3csc4cccc(Cl)c34)C2SC1 (stereo partly drawn) [Ex. 36A]
## Result Not fulfilled

## Task State whether 20 µg/mL exceeds MIC recorded for CC1=C(C(=O)O)N2C(=O)C(NC(=O)[C@H](N)c3csc4ccc(F)cc34)C2SC1 (stereo partly drawn) [Ex. 18] .
## Result Fulfilled

## Task Problem: For the compound CC1=C(C(=O)O)N2C(=O)C(NC(=O)[C@H](N)c3csc4cc(F)ccc34)C2SC1 (stereo partly drawn) [Ex. 17] , is MIC under 20 µg/mL?
## Result Fulfilled

## Task In plain terms, does CC1=C(C(=O)O)N2C(=O)C(NC(=O)[C@@H](N)c3csc4cc(Cl)ccc34)C2SC1 (stereo partly drawn) [Ex. 37A] come in under 20 µg/mL for MIC?
## Result Not fulfilled

## Task I'd appreciate it if you could check whether CC1=C(C(=O)O)N2C(=O)C(NC(=O)[C@H](N)c3csc4cc(Cl)ccc34)C2SC1 (stereo partly drawn) [Ex. 37B] has MIC smaller than 20 µg/mL.
## Result Fulfilled

###

assay: pKa (66% aqueous DMF); assay type: physicochemical
MEASURED ENDPOINT: pKa
Number only, no unit.

Reported pKa of C=CCOC(=O)NC(C(=O)O)c1csc2ccccc12 (stereo not shown) : 5.7

###

Would you kindly list MIC for each of these compounds?
tested on: Klebsiella; assay: Agar Dilution MIC (Table I); assay type: cell-based; conditions: Klebsiella, strain X26; read-out: Agar Dilution MIC

Form field MIC, entry CC1=C(C(=O)O)N2C(=O)C(NC(=O)[C@H](N)c3csc4cc(F)ccc34)C2SC1 (stereo partly drawn) [Ex. 17] : 2 µg/mL

// recorded MIC for CC1=C(C(=O)O)N2C(=O)C(NC(=O)[C@H](N)c3csc4cc(Cl)ccc34)C2SC1 (stereo partly drawn) [Ex. 37B] : 4 µg/mL

MIC measured on C=CC1=C(C(=O)O)N2C(=O)C(NC(=O)[C@H](N)c3csc4ccccc34)C2SC1 (stereo partly drawn) [Ex. 35] = 8 µg/mL

Memo: CC1=C(C(=O)O)N2C(=O)C(NC(=O)[C@H](N)c3csc4ccc(F)cc34)C2SC1 (stereo partly drawn) [Ex. 18] , reported MIC: 4 µg/mL

// MIC lookup, compound = CC1=C(C(=O)O)N2C(=O)C(NC(=O)[C@H](N)c3csc4c(F)cccc34)C2SC1 (stereo partly drawn) [Ex. 20] , result: 4 µg/mL

So for CC1=C(C(=O)O)N2C(=O)C(NC(=O)[C@H](N)c3csc4ccc(Cl)cc34)C2SC1 (stereo partly drawn) [Ex. 38B] , the logged MIC turned out to be 2 µg/mL

Reported MIC for CC1=C(C(=O)O)N2C(=O)C(NC(=O)[C@@H](N)c3csc4ccc(Cl)cc34)C2SC1 (stereo partly drawn) [Ex. 38A] was 16 µg/mL

The recorded MIC for entry CC1=C(C(=O)O)N2C(=O)C(NC(=O)[C@@H](N)c3csc4c(F)cccc34)C2SC1 (stereo partly drawn) [Ex. 21] equals 64 µg/mL

MIC recorded for this compound, CC1=C(C(=O)O)N2C(=O)C(NC(=O)[C@@H](N)c3csc4cc(Cl)ccc34)C2SC1 (stereo partly drawn) [Ex. 37A] , is 64 µg/mL

// recorded MIC for CC1=C(C(=O)O)N2C(=O)C(NC(=O)C(N)c3csc4ccccc34)C2SC1 (stereo not drawn) [Ex. 9] : 2 µg/mL

Reported MIC ( CON=C(C(=O)NC1C(=O)N2C(C(=O)O)=C(C)CSC12)c1csc2cc(OC)ccc12 (stereo not drawn) [Ex. 22] ) = 1 µg/mL

Recorded result, CC1=C(C(=O)O)N2C(=O)C(NC(=O)[C@H](N)c3csc4cccc(F)c34)C2SC1 (stereo partly drawn) [Ex. 19] , MIC: 16 µg/mL
